# key: entry, value: log10 of IC50
Molecular target: p38α (Homo sapiens)
Sequence (Q16539 whole entry): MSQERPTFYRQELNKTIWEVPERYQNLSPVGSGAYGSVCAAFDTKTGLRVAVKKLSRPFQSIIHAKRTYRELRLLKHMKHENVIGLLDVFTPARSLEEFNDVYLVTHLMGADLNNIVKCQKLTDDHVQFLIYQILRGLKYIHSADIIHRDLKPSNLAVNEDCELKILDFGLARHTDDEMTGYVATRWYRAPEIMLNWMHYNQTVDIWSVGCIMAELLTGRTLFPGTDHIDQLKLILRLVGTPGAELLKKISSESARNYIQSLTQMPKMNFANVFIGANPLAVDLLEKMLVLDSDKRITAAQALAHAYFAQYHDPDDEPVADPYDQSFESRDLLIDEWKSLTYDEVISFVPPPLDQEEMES
Measurement name: log10 of IC50 (log10 of the value in nM)

>>> measurement("CNC(=O)c1ccc2nc(Cn3ccc4c(C(=O)c5c(F)cc(F)cc5F)c[nH]c4c3=O)[nH]c2c1")
0.48
>>> measurement("Cc1ccc2nc(Cn3ccc4c(C(=O)c5c(F)cccc5F)c[nH]c4c3=O)cn2n1")
1.20
>>> measurement("O=c1c2[nH]cc(C(O)c3ccc(F)cc3F)c2ccn1Cc1cn2ccccc2n1 (stereo not shown)")
2.40
>>> measurement("Cc1cnc2nc(Cn3ccc4c(C(=O)c5c(F)cccc5F)c[nH]c4c3=O)[nH]c2c1")
1.40
>>> measurement("O=C(c1c(F)cc(F)cc1F)c1c[nH]c2c(=O)n(Cc3nc4cccnc4[nH]3)ccc12")
1.26
>>> measurement("O=C(c1c(F)cc(F)cc1F)c1c[nH]c2c(=O)n(Cc3nc4ccncc4[nH]3)ccc12")
1.11
>>> measurement("NC(=O)c1ccn2cc(Cn3ccc4c(C(=O)c5c(F)cc(F)cc5F)c[nH]c4c3=O)nc2c1")
0.11
>>> measurement("O=C(c1c(F)cc(F)cc1F)c1c[nH]c2c(=O)n(Cc3nc4cccc(F)c4[nH]3)ccc12")
1.43
>>> measurement("O=c1c2[nH]cc(Cc3c(F)cc(F)cc3F)c2ccn1Cc1nc2ncccc2[nH]1")
2.03
>>> measurement("Cc1cc(F)c(C(=O)c2c[nH]c3c(=O)n(Cc4cc5ccccn5n4)ccc23)c(F)c1")
1.34
>>> measurement("O=C(NCC(F)(F)F)c1cnc2nc(Cn3ccc4c(C(=O)c5c(F)cc(F)cc5F)c[nH]c4c3=O)[nH]c2c1")
0.93
>>> measurement("O=C(O)c1ccn2cc(Cn3ccc4c(C(=O)c5c(F)cc(F)cc5F)c[nH]c4c3=O)nc2c1")
0.30
>>> measurement("O=C(c1c(F)cccc1F)c1c[nH]c2c(=O)n(Cc3nc4cccnc4[nH]3)ccc12")
1.58
